# TARGET ENTITY: Peptide 1593 (…) (Mycobacterium tuberculosis)
# TEST SUMMARY: indirect ELISA, supernatant on 1 ug/ml coated peptide
OBSERVED PROPERTY: Titer

[ask] What measured Titer goes with Antibody 101G10-2 (antibody, V domains shown) VH: QSVEESGGRLVTPGTPLTLTCTVSGFSLSSYDMTWVRQAPGKGLEYIGVISYGGSAYYASWAKGRFTISKTSTTVDLKITSPTTEDTATYFCARGDSDGSSELFNLWGQGTLVTVSS VL: AVLTQTPSPVSAPVGGTVSINCQSSKSVYNNNCLSWYQQKPGQPPNLLIYGASTLASGVPSRFKGSGSGTQFTLTINDVQCDDAATYYCAGCFASTNDMYGFGGGSEVVVK ?
[reply] > 2430 dilution 1:x

Data provenance: patent US12649778
